Let's go through some Log K measurements on Nucleic Acid together.
property label: Log K

[[record]]
mol_smiles = "CN(C)c1ccc(Nc2c3ccccc3nc3ccccc23)cc1"
result = 6.29

[[record]]
mol_smiles = "Nc1ccccc1Nc1c2ccccc2nc2ccccc12"
result = 5.76

[[record]]
mol_smiles = "CS(=O)(=O)Nc1ccccc1Nc1c2ccccc2nc2ccccc12"
result = 6.1

[[record]]
mol_smiles = "COC(=O)Nc1ccc(Nc2c3ccccc3nc3ccccc23)cc1"
result = 6.23

[[record]]
mol_smiles = "CCCNc1ccc(Nc2c3ccccc3nc3ccccc23)cc1"
result = 6.28


###

List of Log K tested on Nucleic Acid.
property label: Log K

[[record]]
mol_smiles = "CCCCNc1ccc(Nc2c3ccccc3nc3ccccc23)cc1"
measured_number = 6.45

[[record]]
mol_smiles = "CC(C)(C)c1ccccc1Nc1c2ccccc2nc2ccccc12"
measured_number = 5.23

[[record]]
mol_smiles = "CC(=O)c1ccc(Nc2c3ccccc3nc3ccccc23)cc1"
measured_number = 5.87

[[record]]
mol_smiles = "O=[N+]([O-])c1ccccc1Nc1c2ccccc2nc2ccccc12"
measured_number = 5.36

[[record]]
mol_smiles = "CCOc1ccccc1Nc1c2ccccc2nc2ccccc12"
measured_number = 5.2

[[record]]
mol_smiles = "NC(=O)c1ccccc1Nc1c2ccccc2nc2ccccc12"
measured_number = 5.37

[[record]]
mol_smiles = "NS(=O)(=O)c1ccccc1Nc1c2ccccc2nc2ccccc12"
measured_number = 5.67

[[record]]
mol_smiles = "CNS(=O)(=O)c1ccc(Nc2c3ccccc3nc3ccccc23)cc1"
measured_number = 5.82

[[record]]
mol_smiles = "Nc1ccc(S(=O)(=O)Nc2ccc(Nc3c4ccccc4nc4ccccc34)cc2)cc1"
measured_number = 6.3

[[record]]
mol_smiles = "O=C(Nc1ccccc1)Nc1ccc(Nc2c3ccccc3nc3ccccc23)cc1"
measured_number = 6.37

[[record]]
mol_smiles = "COc1cccc(Nc2c3ccccc3nc3ccccc23)c1"
measured_number = 5.86

